test: FaSSIF solubility; format: physicochemical; settings: FaSSIF buffer, 25 °C, fassif, thermodynamic from solid
Respond with yes for solubility at 4 h values of 8 µM and above, no for values below.

Worked set:
Cc1cc(-n2nc3c(c2-n2ccn(-c4ccc5c(cnn5C)c4F)c2=O)[C@H](C)N(C(=O)c2cc4cc([C@H]5CCOC(C)(C)C5)ccc4n2[C@@]2(c4noc(=O)[nH]4)C[C@@H]2C)CC3)cc(C)c1F [Compound C-5, reference compound] | no
CN=S(=O)(c1ccc(-n2ccn(-c3c4c(nn3-c3cc(C)c(F)c(C)c3)CCN(C(=O)c3cc5cc([C@H]6CCOC(C)(C)C6)ccc5n3[C@@]3(c5noc(=O)[nH]5)C[C@@H]3C)[C@H]4C)c2=O)c(F)c1C)C1CC1 (single isomer, unassigned) | no
CCS(=O)(=NC)c1ccc(-n2ccn(-c3c4c(nn3-c3cc(C)c(F)c(C)c3)CCN(C(=O)c3cc5cc(C6CCOCC6)ccc5n3[C@@]3(c5noc(=O)[nH]5)C[C@@H]3C)[C@H]4C)c2=O)c(F)c1 (single isomer, unassigned) | no
Cc1cc(-n2nc3c(c2-n2ccn(-c4ccc(N5CCCS5(=O)=O)cc4)c2=O)[C@H](C)N(C(=O)c2cc4cc(C5CCOCC5)ccc4n2[C@@]2(c4noc(=O)[nH]4)C[C@@H]2C)CC3)cc(C)c1F [Compound C-4, reference compound] | no
CCS(=O)(=NC)c1ccc(-n2ccn(-c3c4c(nn3-c3cc(C)c(F)c(C)c3)CCN(C(=O)c3cc5cc([C@H]6CCOC(C)(C)C6)ccc5n3[C@@]3(c5noc(=O)[nH]5)C[C@@H]3C)[C@H]4C)c2=O)c(F)c1 (single isomer, unassigned) | yes
CN=S(=O)(c1ccc(-n2ccn(-c3c4c(nn3-c3cc(C)c(F)c(C)c3)CCN(C(=O)c3cc5cc([C@H]6CCOC(C)(C)C6)ccc5n3[C@@]3(c5noc(=O)[nH]5)C[C@@H]3C)[C@H]4C)c2=O)c(F)c1NC)C1CC1 (single isomer, unassigned) | yes
CN=S(C)(=O)c1ccc(-n2ccn(-c3c4c(nn3-c3cc(C)c(F)c(C)c3)CCN(C(=O)c3cc5cc(C6CCOCC6)ccc5n3[C@@]3(c5noc(=O)[nH]5)C[C@@H]3C)[C@H]4C)c2=O)cc1 (single isomer, unassigned) | no
Cc1cc(-n2nc3c(c2-n2ccn(-c4ccc(S(=O)(=O)C5CC5)cc4)c2=O)[C@H](C)N(C(=O)c2cc4cc(C5CCOCC5)ccc4n2[C@@]2(c4noc(=O)[nH]4)C[C@@H]2C)CC3)cc(C)c1F [Compound C-2, reference compound] | yes

Q) Does CNS(=O)(=O)c1ccc(-n2ccn(-c3c4c(nn3-c3cc(C)c(F)c(C)c3)CCN(C(=O)c3cc5cc(C6CCOCC6)ccc5n3[C@@]3(c5noc(=O)[nH]5)C[C@@H]3C)[C@H]4C)c2=O)cc1 [Compound C-3, reference compound] have a reported solubility at 4 h of at least 8 µM?
A) no

Q) Does CCS(=O)(=NC)c1ccc(-n2ccn(-c3c4c(nn3-c3cc(C)c(F)c(C)c3)CCN(C(=O)c3cc5cc(C6CCOCC6)ccc5n3[C@@]3(c5noc(=O)[nH]5)C[C@@H]3C)[C@H]4C)c2=O)cc1 (single isomer, unassigned) have a reported solubility at 4 h of at least 8 µM?
A) no

Q) Does CN=S(=O)(c1ccc(-n2ccn(-c3c4c(nn3-c3cc(C)c(F)c(C)c3)CCN(C(=O)c3cc5cc([C@H]6CCOC(C)(C)C6)ccc5n3[C@@]3(c5noc(=O)[nH]5)C[C@@H]3C)[C@H]4C)c2=O)c(F)c1Cl)C1CC1 (single isomer, unassigned) have a reported solubility at 4 h of at least 8 µM?
A) yes

Q) Does Cc1cc(-n2nc3c(c2-n2ccn(-c4ccc5c(cnn5C)c4F)c2=O)[C@H](C)N(C(=O)c2cc4cc([C@H]5CCOC(C)(C)C5)ccn4c2C2(c4noc(=O)[nH]4)CC2)CC3)cc(C2CC2)c1F [Compound C-6, reference compound] have a reported solubility at 4 h of at least 8 µM?
A) no

Q) Does CCS(=O)(=O)c1ccc(-n2ccn(-c3c4c(nn3-c3cc(C)c(F)c(C)c3)CCN(C(=O)c3cc5cc(C6CCOCC6)ccc5n3[C@@]3(c5noc(=O)[nH]5)C[C@@H]3C)[C@H]4C)c2=O)cc1 [Compound C-1, reference compound] have a reported solubility at 4 h of at least 8 µM?
A) no

Each recorded value in this set is attributed to patent US12291529B2.
